Consider the following molecules; for each one, report its inhibition at 1 µM.
- Target: panel of 255 wild-type kinases (Homo sapiens, UniProt Q9UL54)
- Sequence (Q9UL54 whole entry): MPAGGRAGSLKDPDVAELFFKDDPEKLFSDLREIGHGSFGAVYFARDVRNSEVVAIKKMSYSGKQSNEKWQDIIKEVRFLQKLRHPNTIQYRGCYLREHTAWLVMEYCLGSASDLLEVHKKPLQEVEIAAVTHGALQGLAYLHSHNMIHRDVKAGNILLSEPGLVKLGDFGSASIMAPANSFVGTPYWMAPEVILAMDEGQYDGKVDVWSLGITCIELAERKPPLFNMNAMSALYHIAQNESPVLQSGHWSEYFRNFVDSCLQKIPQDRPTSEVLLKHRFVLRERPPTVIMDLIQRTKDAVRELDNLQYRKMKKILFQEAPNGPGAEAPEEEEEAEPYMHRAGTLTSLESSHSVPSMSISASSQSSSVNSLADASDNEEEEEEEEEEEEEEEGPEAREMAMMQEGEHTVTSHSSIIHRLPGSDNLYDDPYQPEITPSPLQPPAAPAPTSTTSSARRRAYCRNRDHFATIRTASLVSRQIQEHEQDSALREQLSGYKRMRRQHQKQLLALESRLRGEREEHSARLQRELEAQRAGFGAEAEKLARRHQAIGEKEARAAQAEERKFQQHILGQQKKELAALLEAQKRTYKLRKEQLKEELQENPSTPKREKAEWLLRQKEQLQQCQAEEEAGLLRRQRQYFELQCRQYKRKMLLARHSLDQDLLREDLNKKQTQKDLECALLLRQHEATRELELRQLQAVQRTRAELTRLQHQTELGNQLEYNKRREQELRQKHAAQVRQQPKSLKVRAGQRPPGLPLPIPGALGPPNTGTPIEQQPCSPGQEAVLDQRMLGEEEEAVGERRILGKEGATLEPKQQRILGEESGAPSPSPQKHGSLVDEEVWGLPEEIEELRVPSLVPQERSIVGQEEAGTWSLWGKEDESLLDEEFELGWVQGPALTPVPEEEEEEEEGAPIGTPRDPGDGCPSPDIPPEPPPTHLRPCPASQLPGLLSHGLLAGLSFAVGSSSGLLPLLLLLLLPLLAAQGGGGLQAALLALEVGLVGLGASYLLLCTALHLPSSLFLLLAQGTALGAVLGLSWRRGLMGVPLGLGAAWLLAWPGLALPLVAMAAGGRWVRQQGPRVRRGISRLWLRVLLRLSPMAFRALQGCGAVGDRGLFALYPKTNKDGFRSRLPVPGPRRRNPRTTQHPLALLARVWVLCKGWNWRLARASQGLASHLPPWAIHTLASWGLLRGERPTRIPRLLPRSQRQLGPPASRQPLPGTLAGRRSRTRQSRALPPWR
- Experimental Details: Kinase panel profiling at 1 µmol/L (MSA or IMAP), percentage inhibition
- Format: biochemical
- Condition Summary: kinase TAOK2; 1 µmol/L single concentration; read-out: %-inhibition at 1 µmol/L, TAOK2
Provide only the numeric value, understood in %.

Which inhibition at 1 µM value belongs to C[C@H]1Oc2cc(cnc2N)-c2c(nn(C)c2C#N)CN(C)C(=O)c2ccc(F)cc21 [lorlatinib] ?
-1.11

Which inhibition at 1 µM value belongs to CCn1c(=O)c(-c2cc(NC(=O)Nc3ccccc3)c(F)cc2Br)cc2cnc(NC)cc21 [ripretinib] ?
89

Which inhibition at 1 µM value belongs to COC(=O)N[C@@H](C)CNc1nccc(-c2cn(C(C)C)nc2-c2cc(Cl)cc(NS(C)(=O)=O)c2F)n1 [encorafenib] ?
-0.719

Which inhibition at 1 µM value belongs to C=CC(=O)N1CCC([C@@H]2CCNc3c(C(N)=O)c(-c4ccc(Oc5ccccc5)cc4)nn32)CC1 [zanubrutinib] ?
4

Which inhibition at 1 µM value belongs to CN1CCN(c2ccc(C(=O)Nc3n[nH]c4ccc(Cc5cc(F)cc(F)c5)cc34)c(NC3CCOCC3)c2)CC1 [entrectinib] ?
3

Which inhibition at 1 µM value belongs to Cn1cc(-c2cc3c(N4CCN(c5ncc([C@@](C)(N)c6ccc(F)cc6)cn5)CC4)ncnn3c2)cn1 [avapritinib] ?
6

Which inhibition at 1 µM value belongs to COc1cc2ncnc(Nc3ccc(F)c(Cl)c3)c2cc1NC(=O)/C=C/CN1CCCCC1 [dacomitinib] ?
1
